Target: T1, AtPIF3-bHLH WT (Arabidopsis thaliana, UniProt O80536 340-397)
T1 sequence: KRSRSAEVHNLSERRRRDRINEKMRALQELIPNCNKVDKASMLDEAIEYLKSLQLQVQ
Assay: ITC; ITC: 30 mM HEPES, 125 mM NaCl, pH 7.5, 25 C, 400 uM protein into 40 uM DNA; fEMSA: 30 mM HEPES, 500 mM NaCl, pH 7.4, on ice 30 min, 3 uM probe, 10% native gel in 0.5x TBE at 4 C
Conditions: protein: recombinant; tags: C-terminal His6; chain copies: 2; blunt
recordedEndpoint: Kd (nM)
Reply with just the number (in nM).

Request: Return value of Kd for input G-box (PER2), ITC (dsDNA) DNA 1: AGGAACACGTGACCC DNA 2: GGGTCACGTGTTCCT , no commentary.
Response: 320
